// read-out pKi, gathered for Muscarinic acetylcholine receptor M4 (Homo sapiens, UniProt P08173) from published studies
pKi: −log10 of the molar value.

Could you share which pKi value was measured for "O=C(NCCC1CCNCC1)[C@H]1CCCN1C(=O)[C@@H]1C[C@@H](O)CN1C(=O)CC(c1ccc(F)cc1)(c1ccc(F)cc1)c1ccc(F)cc1" ? 7.54

Can you share its pKi? I mean this molecule: "CN1CC(Oc2nc3ccccc3n2-c2ccccc2)C1" < 6.00

Item under review: "CN1CCN(Cc2nc3cccnc3n2-c2ccccc2C(=O)O)CC1" . Reported pKi? < 6.00

State the recorded pKi for this entry: "COc1ccc(NC(=O)N2CCN(c3ccccc3Cl)CC2)cc1N1CCN(C)CC1" < 5.00
